- ASSAY OVERVIEW: yeast display, Sf9 membrane polyspecificity reagent, FACS + sequencing; frameworks hold sequencing errors
MEASURED METRIC: polyreactivity (PSR sort gate)

INSERT INTO results (seq_text, measured_metric, reported_result) VALUES
  ('QVQLVESGGGLVQAGGSLRLSCAASGFTFNCNAMGWYRQAPGKERELVAAIRSSGGSTYYADSVKGRFTISRDNAKYTVYLQMNSLKPEDTAVYYCAARRSNLYYGGTRYWYYYWGQGTQVTVSS', 'polyreactivity (PSR sort gate)', 'high polyreactivity'),
  ('QVQLVESGGGLVQAGGSLRLSCAASGRTSSIYTMGWYRQAPGKERELVAAIRGRGGNTYYADSVKGRFTISRDYAKNTVYLLMNSLKPEDTAVYYCNAKPQGVGLYRYEYWGQGTQVTVSS', 'polyreactivity (PSR sort gate)', 'high polyreactivity');

----------
- ASSAY OVERVIEW: yeast display, Sf9 membrane polyspecificity reagent, FACS + sequencing; frameworks hold sequencing errors
MEASURED METRIC: polyreactivity (PSR sort gate)

INSERT INTO assay_data (seq_text, measured_metric, reported_result) VALUES
  ('QVQLVESGGGLVQAGGSLRLSCAASGRIFVRYAMGWYRQAPGKERELVAAISSGGRTHYADSVKGRFTISRDNAKNTVYLQRNSLKPEDTAVYDCATRLRSTTRYYYWGQGTQVTVSS', 'polyreactivity (PSR sort gate)', 'high polyreactivity'),
  ('QVQLVESGGGLVQAGGRLRLSCAASGSIFFDNTMGWYRQAPWKERELVASITYSGSTYADSVKGRFTISRDNAKNTVYLQMNSLKPEDTAVYYCNTESYWKVERFDYWGQGTHVTVSS', 'polyreactivity (PSR sort gate)', 'low polyreactivity'),
  ('QVQLVESGGGLVQAGGSLRLSCAASGRSNAMGWYRQAPGKERELVAAISTNGGSTYYADSVKGRFTISRDNAKNTVYLQMNSLKPEDTAVYYCAKRLGRDYTFGYWGQGTQVTVSS', 'polyreactivity (PSR sort gate)', 'high polyreactivity'),
  ('QVQLVESGGGLVQAGGSLRLSCAASGSTLYTYAMGWYRQAPGKERELVATISWSGSSTYYADSVKGRFTISRDNAKNTVYLQMNSLKPEDTAVYYCNKVPGKSGVPPDYDYWGQGTQVTVSS', 'polyreactivity (PSR sort gate)', 'high polyreactivity'),
  ('KVQLVESGGGLVQAGGSLRLSCAASGSTFYYYAMGWNRQAPGKERELVAVITLSGGSTYYADSVKGRFTISRDNAKNTFYLQMNSLKPEDTAVFYCAAEHWEVWNSYYYEYDYWGQGTLVTVSS', 'polyreactivity (PSR sort gate)', 'high polyreactivity'),
  ('QVQLVESGVGLVQAGGSLRLSCAASGLTFYLYSMGWYRQAPGKERELVAAINSRGGNTYYADSVKGRFTISRDKAKNTVDLQMNSLKPEDTAVYYCAADWGPWYYYWGQGTQVTVSS', 'polyreactivity (PSR sort gate)', 'high polyreactivity'),
  ('QVQLVESGGGLVQAGGSLRLSCAASGSTFTLNAMGWYRQAPGKECELVADISWSSGRTYYADSVKGRFTISRDNAKNTVYLHMNSLKPEDTAVYYCATDDFWNVKFYAYYPEFDYWGQGTQVTVSS', 'polyreactivity (PSR sort gate)', 'low polyreactivity'),
  ('QVQLVESGGGLVQAGGSLRLSCAASGRIFYQYAMGWYRQAPGKERELVAAISWNGGRTYYADSVKGRFTISRDNAKNTVYLQMNSPKPEDTAVYYCNAVASKSFYYRDNYWGQGTQVTVSS', 'polyreactivity (PSR sort gate)', 'high polyreactivity'),
  ('QVQLVESGGGLVQAGGSLRLSCAASGFTFRYYAMGWYRQAPGKERELVARISSRGGSTNYADSVKGRFTISRDNAKNTVYLQMNSLKAEDTAVYFCAAASWNSNRHYYVARYYYWGQGTQVTVSS', 'polyreactivity (PSR sort gate)', 'high polyreactivity'),
  ('QVQLVESGVGLVQAGGSLRLSCAASGSTLFVYAMGRYRQAPGKERELVAAISRGGSTYYADSVKGRFTISRDNAKNTVYLQMNSLKPEDTAVYYCAAVGGYPRYGYWGQGTQVTVSS', 'polyreactivity (PSR sort gate)', 'high polyreactivity'),
  ('QVQLVESGGGLVQAGGSLRLSCAASGFTFYRYTMGWYRQAPGKERELVAAISSGDSTYYADSVKGRFTISRDNAKNTVYLQMNSLKPEDTAVYYCAARQYSRGAIVYYWGQGTQVTVSS', 'polyreactivity (PSR sort gate)', 'high polyreactivity');

----------
- ASSAY OVERVIEW: yeast display, Sf9 membrane polyspecificity reagent, FACS + sequencing; frameworks hold sequencing errors
MEASURED METRIC: polyreactivity (PSR sort gate)

INSERT INTO measurements (seq_text, reported_result) VALUES
  ('QVQLVESGGGLVQAGGSLRLSCAASGGTFRVYAMGWYRQAPVKERELVDAITWRGGRTYYADSVKGRFTISRDNAKNTDYFQMNSLKPEDPAVYYCAADRYGDLYDYWGQGTQVTVSS', 'high polyreactivity'),
  ('QVQLVESGGGLVQAGGSLRLSCDASGSILGTYALGWSRQAPGKERELVAAISSSGRTSYADSVKGRFTISRDNAKNTVYLQMNSLKPEDTAVYYCIASNYIVLINDPDAAPWLYDYWGQGTQVTVSS', 'low polyreactivity'),
  ('QVQLVETGGGLVQAGGSLRLSCAASGSTFRFYVMGWYRQAPGKERELVAAISTSGGSTYYADSVKGRFTISRDTAKNTVYLQMNSLKPEDTAVYYCAADLIASLRPYYQYDYWGQGTQVTVSS', 'low polyreactivity'),
  ('QDQLVESGGGLVQAGGSLRLSCAASGNTYLNAMGWYRQAPAKEREMVAAISKGGADTYYADSVKGRFTISRDNAKYTVYLQMNSLKPEDTAVYYCNADYWFRFGSSVDQVTEDYWGQGTQVTVSS', 'low polyreactivity'),
  ('QVQLVESGGGIVQAGGSLRLSCAASGSTFSSYAMGWYRQAPGKERELVAGITNSGGSTYYADSVKGRFTISRDNAKNTVYLQMNSLKPEDTAVYYCAAFPRTYSGYYYWGQGTQVTVSS', 'high polyreactivity'),
  ('LLMGWYRQAPGEERELVAGINDGASTNYADSVKGRFTISRDNARNTVYLKMNSLKPGDTAVYYCAVWQPVLIWFYYWGQGTQVTVSS', 'high polyreactivity'),
  ('QVQLVESGGGLVQAGGSLRLSCAASGSIFTSYAIGWYRQAPGKERELVAGIDWSGGGTYYADSVKGRFTISRDNAKNTVYLQMNSLKPEDTAVYYCNADGPYTRYGPVDYWGQGTQVTVSS', 'low polyreactivity'),
  ('QVQHVESGGGLVQAGGSLRLTCAASARIFRYYPMGRYRPAPGKERELVAGITTGGGSTYYADSVKGRFTISRENAKNTVYLQMNSLKPEDTAVFYCAARYYTTYYWGQGTQVTVSS', 'high polyreactivity'),
  ('QVQLVESGGGLVQAGGSLRLSCAAYGNTFEHYAKGWYRQAPVKERELVAAISNSGGSTYYADSVKGRFTLSRDNAKNTVYLQMNSLKPEDTAVYYCNARGRASATVRLGRPDPFGDWGQGTQVTVSS', 'high polyreactivity'),
  ('QVQLVESGGGLVQAGGSLRLSCAASGRTFGTNAMGRYRKAPGKERELVAAITWRGGSTSYADSEKGRFTISRDNAKNSVYFQMNSLKPEDPAVYYCAVRLRYPGNTFYYLGQGTQVTVSS', 'high polyreactivity'),
  ('QVQLVESGGGLVQAGGSLRLSCAASGNTFSDYSMGWYRQAPGNERELVAAITISGGSTYYADSVKGRFTISRDNAKNTVYLQMNSLKPEDTAVYYCAADVWYILYDYWGQGTQVTVSS', 'low polyreactivity');

----------
- ASSAY OVERVIEW: yeast display, Sf9 membrane polyspecificity reagent, FACS + sequencing; frameworks hold sequencing errors
MEASURED METRIC: polyreactivity (PSR sort gate)

INSERT INTO assay_data (seq_text, reported_result) VALUES
  ('QVQLVESGGGLVQAGGSLRLSCAASGSIFVRYAMGWYRQAPGKERELVAVISSDGRTYYADSVKGRFTISRDNAKNTVYLQMNSLKPEDTAVYYCAKRAWGFGGYDYWGQGTQVTVSS', 'low polyreactivity'),
  ('QVHLVESGGGIVQAGGSLRLSCAASGFTFRRYAMGWYRQAAGKERELVATITKGGGRTYYADSVKGRFTISRDNAKNTVYLQMNSLKPEDTAVFYCNASLTYDYNYWGPGTQVTVSS', 'high polyreactivity'),
  ('QVQLVESGGGLVQAGRILRLSCAASGRTFDSNAMGWYRQAPGKERELVAAISYGGGTTHYADSVKGRFTISRDNAKNTVYLQMNSLKPEYTAVYYCSADPEHLCESVTIGEYDYWGQGTQVTLSS', 'low polyreactivity'),
  ('QVQLVESGGGLVQAGGSLRLSCAASGFTFYRYTMGWYRQAPGKERELVAVISSGGRTNYADSVKGRFTISRDNAKNTVYLQMNSLKPEDTAVYYCATRYPGYRDGYDYWGQGTQVSVSS', 'high polyreactivity'),
  ('QVQLVESGGGLVQAGGSLRISCAASGFIYTRYTMGWYRQAPGKERELVAVINSSGGSTYYADSVKGRFTISRDNAKNTVYLQMNSLKPEDTAVYYCNALSRYRIWSYGYWGPGTQVTVSS', 'high polyreactivity'),
  ('QVQLVESGGGLVQAGGSLRLSCAASGSTFGYNAMGWYRQAPGKERELVAASSRSGGRTYYADSVKGRFTISRDNAKNTVYLQMNSLKPEDTAVYYCATYYTNKVPARYYWGQGTQVTVSS', 'high polyreactivity'),
  ('QVQLVESGGGLVQAGGSLRLIFAASGFTFGGYAMGWYRQGPGKERELVAGISYRGGSTYYADSVKGRFTISRDNAKNTVYLQMNSLKPEDTAVYYCAADRGYPGKVDYWGQGTQVTVSS', 'low polyreactivity'),
  ('QVQLEDSGGGLVQAGGSLRLSSAASGSTFAVYAMGWYRQAPGKERELVAAISFSGSTYADSVKGRFTISRDNAKNTVYLQMNSLKPEDTAVYYCAKEYRVFGWWYTKGDYWGQGTQVTVSS', 'low polyreactivity'),
  ('QVQLVESGGGLVQAGGSLRLSCAASGSTLHEYVMGWYRQAPGKGRELVAAISRRGDSTYYADSVKGRFTISRDNAKNTVYLQMNSLKPEDTAVYYCAARWYWYWSSWDYYSWGQGTQVTVSS', 'low polyreactivity'),
  ('QVKLVESGGGLVQAGGSLRLSCAASGFIIGGYGMGWYRQAPGKERELVAVITASGGSTYYADSVKWLFTISRDNAKNTVYLQMNSLKPEDTGVYYCAARVGRYGYSQYYYWGQGTQVTVSS', 'high polyreactivity'),
  ('QVQLVESGGGLVQAGGSLRLSCAASGSTFIFYSMGWYRQAPGKERELVAAITSSGGSTYYADSVKGRFTISRDNANNTVYLQMNSLKPEDTAVYYCITLAYTYGSKFGYWGQGTQVTVSS', 'low polyreactivity');
